Exercise: for every item that follows, state its recorded Ki.
STUDY_SYSTEM: CmedOBP1 (Cnaphalocrocis medinalis, UniProt H9XFD2)
Sequence (H9XFD2 entry or part of it): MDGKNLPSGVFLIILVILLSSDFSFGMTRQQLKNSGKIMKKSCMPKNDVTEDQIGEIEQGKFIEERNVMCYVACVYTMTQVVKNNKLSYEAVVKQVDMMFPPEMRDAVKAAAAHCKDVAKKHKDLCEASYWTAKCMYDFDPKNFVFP
RUN_DESCRIPTION: Fluorescence competitive binding assay (1-NPN) with CmedOBP1
MEASUREMENT_PARAMETERS: Ki, CmedOBP1 2 μM, 1-NPN probe 2 μM; calculated from IC50
A number alone suffices; assume µM.

Req: Query the reported Ki for CmedOBP1 (Cnaphalocrocis medinalis, UniProt H9XFD2); item: O=CCc1ccccc1 [Phenylacetaldehyde, phenylacetaldehyde]
Resp: 13.7

Req: // fetch CmedOBP1 (Cnaphalocrocis medinalis, UniProt H9XFD2) Ki for CCCCCC=O [Hexanal, hexanal]
Resp: 17.5

----------
STUDY_SYSTEM: UniProtKB A0A1P8SKA7
RUN_DESCRIPTION: Fluorescence competitive binding assay (1-NPN) with CmedOBP26
MEASUREMENT_PARAMETERS: CmedOBP26 2 μM, 1-NPN probe 2 μM; read-out: IC50
Task for the reader: assign each of the following compounds its reported pIC50.
Friendly reminder that pIC50 comes from taking -log10 of the concentration in mol/L.

Req: I'd like to know its pIC50. The compound in question is CCCCCCCO
Resp: 4.28

Req: State the recorded pIC50 for this entry: CC(=O)OCc1ccccc1 [Benzyl Acetate, benzyl acetate]
Resp: 4.02

----------
I'd be grateful if you could share measured IC50 for these entries.
STUDY_SYSTEM: CmedOBP1 (Cnaphalocrocis medinalis)
RUN_DESCRIPTION: Fluorescence competitive binding assay (1-NPN) with CmedOBP1
Kindly provide the numeric value in µM only, without the unit symbol.

Req: Looking for the measured IC50 of CCCCCC=O [Hexanal, hexanal] , can you help?
Resp: 99.2

Req: IC50 for O=CCc1ccccc1 [Phenylacetaldehyde, phenylacetaldehyde] ?
Resp: 77.5

----------
STUDY_SYSTEM: CmedGOBP2 (Cnaphalocrocis medinalis, UniProt H9XFD1)
Sequence (H9XFD1 entry or part of it): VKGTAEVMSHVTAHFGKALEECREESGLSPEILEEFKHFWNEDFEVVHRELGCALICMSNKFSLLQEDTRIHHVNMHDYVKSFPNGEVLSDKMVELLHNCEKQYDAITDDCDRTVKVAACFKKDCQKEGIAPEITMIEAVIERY
RUN_DESCRIPTION: Fluorescence competitive binding assay (1-NPN) with CmedGOBP2
PROPERTY_LABEL: Ki

Req: Reported Ki, compound O=CCc1ccccc1 : ____
Resp: > 50 µM

Req: Requested field: Ki. Item: CCCCCC=O
Resp: > 50 µM

----------
STUDY_SYSTEM: CmedOBP26 (Cnaphalocrocis medinalis, UniProt A0A1P8SKA7)
Sequence (A0A1P8SKA7 entry or part of it): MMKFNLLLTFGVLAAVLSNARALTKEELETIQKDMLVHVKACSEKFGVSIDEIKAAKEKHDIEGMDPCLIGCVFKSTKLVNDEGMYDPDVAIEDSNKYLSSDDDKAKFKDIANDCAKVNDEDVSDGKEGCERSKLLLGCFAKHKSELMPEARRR
RUN_DESCRIPTION: Fluorescence competitive binding assay (1-NPN) with CmedOBP26
MEASUREMENT_PARAMETERS: CmedOBP26 2 μM, 1-NPN probe 2 μM; calculated from IC50; read-out: Ki
PROPERTY_LABEL: pKi
On this scale, pKi is minus log10 of a concentration expressed in M (mol/L).

Req: Suppose we examine the compound CCCCCCCO ; what pKi value has been reported?
Resp: 4.50

----------
STUDY_SYSTEM: CmedOBP1 (Cnaphalocrocis medinalis, UniProt H9XFD2)
RUN_DESCRIPTION: Fluorescence competitive binding assay (1-NPN) with CmedOBP1
MEASUREMENT_PARAMETERS: CmedOBP1 2 μM, 1-NPN probe 2 μM; read-out: IC50
PROPERTY_LABEL: pIC50
# reply with the number alone; pIC50 is -log10 of concentration in mol/L

Req: // lookup pIC50 for CC(=O)OCc1ccccc1 [Benzyl Acetate, benzyl acetate]
Resp: 3.75

Req: What value of pIC50 has been recorded for this entry: CCCCCCCO [1-Heptanol, 1-heptanol]
Resp: 4.17
